- experimental_protocol: ATG_CMV_CIS: Attagene CIS-FACTORIAL HepG2 Assay for human CMV (Internal Marker) (AID 2282928);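 also: endpoint acts as a background internal control marker rather than a target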
- setup_conditions: HepG2 CMV promoter reporter, transcription factor profiling; actives raise or lower the signal
Activity calls are given as the source filed them. The calls were made as follows: active = hit-call score of the fitted dose curve at least 0.9, where 1 is the maximum; inactive = score below 0.9.
Result category, one only: YES = active, NO = inactive

Please review the entries below; each comes with its answer.
> print(dat)
                          compound  answer.label
1                COc1ccc(C=O)cc1OC            NO
2  CC(C#N)CCC#N (stereo not given)            NO
3           CCOC(=O)CP(=O)(OCC)OCC            NO

Which outcome was entered for the compound "CCC(C)(C)c1ccc(O)c(C(C)(C)CC)c1" in this test?
YES

Further, for CNC(=O)O/N=C/C(C)(C)S(C)=O (stereo not given) ?
NO

Param item: "CCCCP(CCCC)CCCC"
NO

Follow-up item: "CNC"
NO

# repeat for "C=CC(=O)N(C)C"
NO

Next: CCSC(C)CC1CC(=O)C(C(CC)=NOC/C=C/Cl)=C(O)C1 (stereo not given)
NO

Now try OCC(O)CCl (stereo not given) .
NO

----------
- experimental_protocol: BSK_KF3CT_SRB: Viability Assessment in the BioMAP Diversity Plus: KF3CT Assay (AID 2283069);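 also: total protein by sulforhodamine B staining as a cytotoxicity measure; read 24 h after compound addition; fitted for both signal gain and loss against DMSO baseline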
- setup_conditions: primary human keratinocytes with fibroblasts
Calls of active or inactive are those of the source. Rule for the calls: active = hit-call score of the fitted dose curve at least 0.9, where 1 is the maximum; inactive = score below 0.9.
Result category, one only: active, inactive

Record excerpt, results attached:
> print(dat)
                                   molecule  answer.label
1                    Nc1ncc([N+](=O)[O-])s1      inactive
2  CCN1CCC2(CC1)COc1cc3c(cc12)N(C(=O)c1ccc(-c2ccc(-c4nnc(C)o4)cc2C)cc1)CC3        active
3                                   NC(=O)O      inactive
4               O=c1[nH]c(=O)[nH]c(=O)[nH]1      inactive
5  CC(C)CCCCCCOC(=O)c1ccccc1C(=O)OCCCCCCC(C)C      inactive

Which result was noted for this molecule in the test: "Cn1sc(Cl)cc1=O"
inactive

Do the same for "COc1cc(-c2ccc(N)c(OC)c2)ccc1N" please
inactive

Now the molecule "O=[N+]([O-])c1ccc2c3c(cccc13)CC2"
inactive

Next molecule: CC12CC1(C)C(=O)N(c1cc(Cl)cc(Cl)c1)C2=O (centres undefined)
inactive

And "CC1(C)Cc2cccc(O)c2O1" ?
inactive

Note, next up: "COP(=S)(OC)Oc1ccc(S(=O)(=O)N(C)C)cc1"
inactive

Follow-up entry: "COC[C@H](C)N(C(=O)CCl)c1c(C)csc1C"
inactive

Same for "CC(=O)[O][Hg][c]1ccccc1"
active

Then what about the molecule "ClCC(Cl)CCl" ?
inactive

What do you have for "COc1cc(OC)nc(NC(=O)NS(=O)(=O)c2ncccc2C(=O)N(C)C)n1" ?
inactive

Queued: "CC(C)(C)c1cc(O)ccc1O"
active

Ok, now CCSC(C)CC1CC(=O)C(C(CC)=NOC/C=C/Cl)=C(O)C1 (centres undefined)
inactive

What about "CCOP(=S)(OCC)SCSP(=S)(OCC)OCC" ?
inactive

Field entry: "NC(=S)Nc1ccccc1"
inactive

----------
- experimental_protocol: TOX21_p53_BLA_p4_viability: Viability Assessment in the Tox21 HCT-116 p53 Agonism Beta-lactamase Assay, Phase 4 (AID 2283597);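 also: hits lower the luminescence signal meaning cytotoxicity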
Records with an inconclusive call do not appear. Calls of active or inactive are those of the source. How the source made its calls: active means hit-call score of the fitted dose curve at least 0.9, where 1 is the maximum; inconclusive means response in the unintended direction; inactive means score below 0.9.
measurement_name: outcome

> print(dat)
                 chemical.structure    result
1            CN(C)P(=O)(N(C)C)N(C)C  inactive
2  CCOP(=S)(OCC)Oc1nc(Cl)c(Cl)cc1Cl  inactive
3                   CCC(=O)c1ccccc1  inactive

----------
- experimental_protocol: ATG_Oct_MLP_CIS: Attagene CIS-FACTORIAL HepG2 Assay for human Octamer-Binding Transcription Factor (Oct) (AID 2282993)
- setup_conditions: HepG2 Attagene cis-factorial Oct reporter, mRNA; actives raise or lower the signal
The source made the active and inactive calls. How the source made its calls: active means hit-call score of the fitted dose curve at least 0.9, where 1 is the maximum; inactive means score below 0.9.
measurement_name: AC50

compound	result
N#CCc1ccc(Cl)cc1	inactive
CCOP(=S)(OCC)Oc1ccc(S(C)=O)cc1 (stereo not drawn)	inactive
ClC1=C(Cl)[C@]2(Cl)[C@@H]3[C@@H](Cl)[C@@H](Cl)C[C@@H]3[C@@]1(Cl)C2(Cl)Cl	inactive
Nc1ccc(Cl)cc1C(=O)c1ccccc1	inactive
Cc1cc(Cl)ccc1O[C@H](C)C(=O)O	inactive
C(=NC1CCCCC1)=NC1CCCCC1	5.24 µM (active)

Need AC50, item "CCNc1nc(NC(C)(C)C)nc(SC)n1"
inactive

# repeat for "C=CC(=O)OCCCCCC(C)C"
inactive

And for "Nc1cccc2ccccc12" ?
inactive

----------
- target_of_assay: mouse Estrogen Receptor alpha (Era), Esr1 (gene 13982)
- experimental_protocol: NVS_NR_mERa: NovaScreen (NVS) Nuclear Receptor Binding Assay for mouse Estrogen Receptor alpha (Era) (AID 2283378);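 also: hit means loss of bound radioligand signal relative to DMSO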
Inconclusive results are not listed. The source made the active and inactive calls. How the source made its calls: active means hit-call score of the fitted dose curve at least 0.9, where 1 is the maximum; inconclusive means response in the unintended direction; inactive means score below 0.9.
measurement_name: AC50

Examples with answers:
> print(dat)
                                   compound                           target.of.assay            result
1  Clc1ccc(COC(Cn2ccnc2)c2ccc(Cl)cc2Cl)cc1 (stereo unspecified)  mouse Estrogen Receptor alpha (Era), Esr1 (gene 13982)          inactive
2  C[C@]12CC[C@H](O)CC1=CC[C@@H]1[C@@H]2CC[C@]2(C)C(=O)CC[C@@H]12  mouse Estrogen Receptor alpha (Era), Esr1 (gene 13982)  2.17 µM (active)
3                               O=C(CCl)CCl  mouse Estrogen Receptor alpha (Era), Esr1 (gene 13982)          inactive
4                               ClCC(Cl)CCl  mouse Estrogen Receptor alpha (Era), Esr1 (gene 13982)          inactive
5  Fc1ccc(C2(Cn3cncn3)OC2c2ccccc2Cl)cc1 (stereo unspecified)  mouse Estrogen Receptor alpha (Era), Esr1 (gene 13982)          inactive

Requested field: AC50. Item: "CCN1CCC2(CC1)COc1cc3c(cc12)N(C(=O)c1ccc(-c2ccc(-c4nnc(C)o4)cc2C)cc1)CC3"
0.174 µM (active)

----------
- experimental_protocol: ATG_EGR_CIS: Attagene CIS-FACTORIAL HepG2 Assay for human Early Growth Response 1 (EGR1) (AID 2282938)
- setup_conditions: HepG2 Attagene CIS-FACTORIAL EGR reporter mRNA; actives raise or lower the signal
Active and inactive are the calls of the source. How the source made its calls: active means hit-call score of the fitted dose curve at least 0.9, where 1 is the maximum; inactive means score below 0.9.
# output must be one of TRUE = active, FALSE = inactive

See these solved cases before continuing.
> print(dat)
                                   compound  answer.label
1         O=P(O)(O)CN(CP(=O)(O)O)CP(=O)(O)O         FALSE
2  C[C@]12CC[C@H](O)CC1=CC[C@@H]1[C@@H]2CC[C@]2(C)C(=O)CC[C@@H]12         FALSE
3  CCC(C)c1cccc(C(C)CC)c1O (centres undefined)         FALSE
4                            Cn1sc(Cl)cc1=O         FALSE
5           Cl/C=C\C[N+]12CN3CN(CN(C3)C1)C2         FALSE

I'd appreciate the recorded outcome for "O=C/C=C/c1ccccc1" from this test.
FALSE

Then this compound: "O=C(Nc1ccc2[nH]ccc2c1)c1cc2cc(F)ccc2n1Cc1cccc(F)c1"
TRUE

Field entry: Fc1ccc(C2(Cn3cncn3)OC2c2ccccc2Cl)cc1 (centres undefined)
FALSE

----------
- Read-out: Tissue Factor, F3 (gene 2152)
- experimental_protocol: BSK_CASM3C_TissueFactor: BioMAP Diversity Plus: CASM3C Assay for Tissue Factor Biomarker Activity (AID 2283052);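 also: cell surface tissue factor protein level read by ELISA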
- setup_conditions: primary human coronary artery smooth muscle cells; actives raise or lower the signal
Activity calls are given as the source filed them. Rule for the calls: active = hit-call score of the fitted dose curve at least 0.9, where 1 is the maximum; inactive = score below 0.9.
Permitted responses: active, inactive

Record excerpt, results attached:
> print(dat)
                       chemical.structure  answer.label
1  CCOC(=O)/C=C(C)/C=C/C[C@@H](C)CCCC(C)C        active
2   O=[N+]([O-])c1ccc(O)c([N+](=O)[O-])c1      inactive

Would you kindly look at the next entry?
// outcome(item) with item = "Nc1ncc([N+](=O)[O-])s1"
inactive
